Measurement target: WNV NS2B/NS3 protease (West Nile virus)
Sequence (P06935 1502-1680): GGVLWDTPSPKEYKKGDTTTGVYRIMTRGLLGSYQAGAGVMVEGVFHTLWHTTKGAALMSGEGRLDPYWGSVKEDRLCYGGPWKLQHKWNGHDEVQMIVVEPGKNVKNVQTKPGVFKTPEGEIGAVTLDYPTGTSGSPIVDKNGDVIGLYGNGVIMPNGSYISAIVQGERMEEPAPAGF
Sequence (P06935 1419-1466): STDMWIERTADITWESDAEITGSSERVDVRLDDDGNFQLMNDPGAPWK
Test protocol: In vitro NS2B/NS3 protease inhibition (fluorescent substrate Pyr-RTKR-AMC, progress curve method)
Type: biochemical
Run conditions: inhibitor 100 µM; after 30 min incubation at 37 °C; substrate Pyr-RTKR-AMC 20 µM
Description: For the initial screening, Cbz-protected aminophosphonates were assayed in 96 well microplates (Nunc™ F96 MicroWell™ White Polystyrene Plate) in the following protease buffer: 50 mM Tris, 1 mM Chaps, 20% glycerol, pH 8.5. […] The progress of the reaction was monitored continuously (λex = 354 nm, λem = 442 nm) at 37 °C on a Spectra Max Gemini XPS spectrofluorometer (Molecular Devices, Sunnyvale, CA) for 30 min. […] The enzyme solution was added and enzymatic reaction was monitored (Figure S1). […]
Measured parameter: percent of inhibition (%)
Answers are plain numbers, in %.

Compound	percent of inhibition, %
NC(=O)CCC(NC(=O)OCc1ccccc1)P(=O)(Oc1ccccc1)Oc1ccccc1 (stereo not shown)	15
CN1CCN(c2ccc(C(NC(=O)OCc3ccccc3)P(=O)(Oc3ccccc3)Oc3ccccc3)cc2)CC1 (stereo not shown)	3
N=C(N)SCCCC(NC(=O)OCc1ccccc1)P(=O)(Oc1ccccc1)Oc1ccccc1 (stereo not shown)	22

Please state, for each entry, its recorded percent of inhibition.
1. O=C(NC(c1ccc(-n2cccn2)cc1)P(=O)(Oc1ccccc1)Oc1ccccc1)OCc1ccccc1 (stereo not shown)
2. O=C(NC(c1ccc(N2CCOCC2)cc1)P(=O)(Oc1ccccc1)Oc1ccccc1)OCc1ccccc1 (stereo not shown)
3. N#Cc1ccc2cc(C(NC(=O)OCc3ccccc3)P(=O)(Oc3ccccc3)Oc3ccccc3)ccc2c1 (stereo not shown)
4. O=C(NC(c1ccc(-n2cnc3ccccc32)cc1)P(=O)(Oc1ccccc1)Oc1ccccc1)OCc1ccccc1 (stereo not shown)

Result block:
5
1
2
4
